EXPERIMENTAL TARGET: rhesus monkey wild-type alpha-7 nACh receptor (Macaca mulatta)
TEST PROTOCOL: Patch clamp net charge analysis of wild-type mkα7 in stably transfected QM7 cells
TEST PARAMETERS: wild-type alpha-7 clone #1, dose response curve, FIG. 8, normalized to 1 mM ACh
METRIC: EC50 (µM)
Unit µM implied. Number only.

Data point: CC(=O)OCC[N+](C)(C)C [acetylcholine] ; EC50 = 38
